# tgt: T1, human CD26-derived 13 mer peptide 116 (human)
# T1 peptide: SVTNATSIQITAP
# test.method.notes: peptide microarray
Listed binders paired with reported Mean Signal Value
readout: Mean Signal Value

>>> recorded_value("rhuMAb 409 (antibody, human IgG1, V domains shown, CM03 VH and VL with human IgG1 heavy chain constant region and human kappa constant region; also called X409) VH: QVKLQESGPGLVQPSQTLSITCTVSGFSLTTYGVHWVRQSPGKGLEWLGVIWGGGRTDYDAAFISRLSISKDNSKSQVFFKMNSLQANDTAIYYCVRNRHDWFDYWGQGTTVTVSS VL: DIQMTQSPSSLSASLGDRVTITCSASQGIRNSLNWYQQKPDGAVKLLIYYSSNLHSGVPSRFSGSGSGTDFSLTISNLEPEDIATYYCQQSIKLPFTFGSGTKLEIKR")
0
>>> recorded_value("rhuMAb 412 (antibody, human IgG1, V domains shown, X385 VH and X380 VL with human IgG1 and human kappa constant regions; also called X412) VH: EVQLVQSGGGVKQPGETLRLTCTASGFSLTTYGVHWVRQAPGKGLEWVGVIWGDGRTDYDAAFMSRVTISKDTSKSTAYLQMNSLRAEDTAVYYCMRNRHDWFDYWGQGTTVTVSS VL: EIEMTQSPSSLSVSAGERATISCSASQDIRNSLNWYQQKPGQAPRLLIYYSSNLHTGVPARFSGSGSGTDFTLTISRLEPEDVAIYYCQQSNKLPLTFGSGTKVEIKR")
0
>>> recorded_value("rhuMAb 420 (antibody, human IgG1, V domains shown, X420 VH and X380 VL with human IgG1 and human kappa constant regions; also called X420 (IgG1)) VH: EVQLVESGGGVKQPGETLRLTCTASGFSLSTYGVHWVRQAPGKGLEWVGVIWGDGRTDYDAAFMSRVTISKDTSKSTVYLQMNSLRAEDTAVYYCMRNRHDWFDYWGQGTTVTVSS VL: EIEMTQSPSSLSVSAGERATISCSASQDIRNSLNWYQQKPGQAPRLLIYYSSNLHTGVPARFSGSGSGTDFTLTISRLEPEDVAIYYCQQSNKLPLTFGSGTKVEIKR")
0
>>> recorded_value("rhuMAb 411 (antibody, human IgG1, kappa, V domains shown, also called X411) VH: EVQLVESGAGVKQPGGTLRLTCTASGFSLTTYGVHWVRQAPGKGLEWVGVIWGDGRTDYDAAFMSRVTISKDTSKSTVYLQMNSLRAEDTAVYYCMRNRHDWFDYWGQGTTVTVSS VL: DILLTQSPSSLSATPGERATITCRASQGIRNNLNWYQQKPGQAPRLLIYYSSNLQSGVPSRFSGSGSGTDFTLTISRLQPEDVAAYYCQQSIKLPFTFGSGTKVEIKR")
0.0385

Reference source: patent US20070105771A1
